Listed here: items and their measured viability, T/C.
Tested on: 786-0 complex spheroids with HUVEC/MSC, growth % test/control
Assay: Anticancer human tumor 786-0 cell line growth inhibition [AhR];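 further: compound exposure lasted seven days before the read-out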
Settings: second compound 0.1 µM; first compound 1 µM; stronger effect = lower value
Field: numeric (%). Do not append units.

Some compounds with known viability, T/C results, for comparison:
Enquiry: Tell me its viability, T/C given COc1cc(Nc2ncc3c(n2)-c2ccc(Cl)cc2C(c2c(F)cccc2OC)=NC3)ccc1C(=O)O + CC(CO)NC(=O)c1cc(-c2ccc(Cl)cc2)nn(-c2cnn(C)c2)c1=O as the entry.
Return: 82

Enquiry: Tell me its viability, T/C given CC1COCCN1c1cc(C2(S(C)(=N)=O)CC2)nc(-c2ccnc3[nH]ccc23)n1 (centres undefined) + CC(CO)NC(=O)c1cc(-c2ccc(Cl)cc2)nn(-c2cnn(C)c2)c1=O as the entry.
Return: 99.4

Enquiry: Tell me its viability, T/C given CC1(C)CCC(CN2CCN(c3ccc(C(=O)NS(=O)(=O)c4ccc(NCC5CCOCC5)c([N+](=O)[O-])c4)c(Oc4cnc5[nH]ccc5c4)c3)CC2)=C(c2ccc(Cl)cc2)C1 + CC(CO)NC(=O)c1cc(-c2ccc(Cl)cc2)nn(-c2cnn(C)c2)c1=O as the entry.
Return: 99.9

---
Enquiry: Tell me its viability, T/C given Nc1ccccc1NC(=O)c1ccc(CNC(=O)OCc2cccnc2)cc1 + Cc1cncc(-c2nc(NCCc3c[nH]c4ccccc34)c3ncn(C(C)C)c3n2)c1 as the entry.
Return: 115

Enquiry: Tell me its viability, T/C given COc1cc(C2c3cc4c(cc3C(OC3OC5COC(C)OC5C(O)C3O)C3COC(=O)C23)OCO4)cc(OC)c1O (centres undefined) + CC(CO)NC(=O)c1cc(-c2ccc(Cl)cc2)nn(-c2cnn(C)c2)c1=O as the entry.
Return: 29.7

###

Test system: 786-0 complex spheroids with HUVEC/MSC, growth % test/control
Experiment: Anticancer human tumor 786-0 cell line growth inhibition [AhR];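 further: compound exposure lasted seven days before the read-out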
Conditions: second compound 1 µM; first compound 3.16 µM; stronger effect = lower value
Readout label: viability, T/C (%)
Field: numeric (%). Do not append units.

Some compounds with known viability, T/C results, for comparison:
Enquiry: Tell me its viability, T/C given Nc1ccn(C2OC(CO)C(O)C2(F)F)c(=O)n1 (stereo not drawn) + Cc1ccccc1N=Nc1ccc(NC(=O)c2ccnn2C)c(C)c1 as the entry.
Return: 7.07

Enquiry: Tell me its viability, T/C given COc1cccc2c1C(=O)c1c(O)c3c(c(O)c1C2=O)CC(O)(C(=O)CO)CC3OC1CC(N)C(O)C(C)O1 (stereo not drawn) + Cc1ccccc1N=Nc1ccc(NC(=O)c2ccnn2C)c(C)c1 as the entry.
Return: 1.55

Enquiry: Tell me its viability, T/C given CC(C)c1c(-c2ccccc2)nc2c(C#N)c[nH]n2c1=O + CC(CO)NC(=O)c1cc(-c2ccc(Cl)cc2)nn(-c2cnn(C)c2)c1=O as the entry.
Return: 107

We next turn to a different compound, shown below.
Enquiry: Tell me its viability, T/C given O=C(C=Cc1cccc(S(=O)(=O)Nc2ccccc2)c1)NO + Cc1ccccc1N=Nc1ccc(NC(=O)c2ccnn2C)c(C)c1 as the entry.
Return: 90.7

###

System: 786-0 complex spheroids with HUVEC/MSC, growth % test/control
Assay: Anticancer human tumor 786-0 cell line growth inhibition [AhR];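 further: compound exposure lasted seven days before the read-out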
Settings: curve of first compound; second compound 10 µM
Readout label: IC50

Some compounds with known IC50 results, for comparison:
Enquiry: Param request: IC50 | system 786-0 complex spheroids with HUVEC/MSC, growth % test/control | item Nc1ncn(C2CC(O)C(CO)O2)c(=O)n1 (centres undefined) + CC(CO)NC(=O)c1cc(-c2ccc(Cl)cc2)nn(-c2cnn(C)c2)c1=O
Return: > 1000 nM

Enquiry: Param request: IC50 | system 786-0 complex spheroids with HUVEC/MSC, growth % test/control | item Nc1ncn(C2CC(O)C(CO)O2)c(=O)n1 (centres undefined) + Cc1ccccc1N=Nc1ccc(NC(=O)c2ccnn2C)c(C)c1
Return: > 1000 nM

Enquiry: Param request: IC50 | system 786-0 complex spheroids with HUVEC/MSC, growth % test/control | item CC[C@@]1(O)C(=O)OCc2c1cc1n(c2=O)Cc2cc3c(CN(C)C)c(O)ccc3nc2-1 + Cc1cncc(-c2nc(NCCc3c[nH]c4ccccc34)c3ncn(C(C)C)c3n2)c1
Return: < 0.316 nM

---
Enquiry: Param request: IC50 | system 786-0 complex spheroids with HUVEC/MSC, growth % test/control | item Nc1ccccc1NC(=O)c1ccc(CNC(=O)OCc2cccnc2)cc1 + Cc1cncc(-c2nc(NCCc3c[nH]c4ccccc34)c3ncn(C(C)C)c3n2)c1
Return: < 31.6 nM

Enquiry: Param request: IC50 | system 786-0 complex spheroids with HUVEC/MSC, growth % test/control | item CC1(C)CCC(CN2CCN(c3ccc(C(=O)NS(=O)(=O)c4ccc(NCC5CCOCC5)c([N+](=O)[O-])c4)c(Oc4cnc5[nH]ccc5c4)c3)CC2)=C(c2ccc(Cl)cc2)C1 + Cc1ccccc1N=Nc1ccc(NC(=O)c2ccnn2C)c(C)c1
Return: > 10000 nM

Enquiry: Param request: IC50 | system 786-0 complex spheroids with HUVEC/MSC, growth % test/control | item CCN(c1cc(-c2ccc(CN3CCOCC3)cc2)cc(C(=O)NCc2c(C)cc(C)[nH]c2=O)c1C)C1CCOCC1 + Cc1cncc(-c2nc(NCCc3c[nH]c4ccccc34)c3ncn(C(C)C)c3n2)c1
Return: < 9.49 nM

Enquiry: Param request: IC50 | system 786-0 complex spheroids with HUVEC/MSC, growth % test/control | item CCc1c2c(nc3ccc(O)cc13)-c1cc3c(c(=O)n1C2)COC(=O)[C@]3(O)CC + Cc1cncc(-c2nc(NCCc3c[nH]c4ccccc34)c3ncn(C(C)C)c3n2)c1
Return: < 0.949 nM

Enquiry: Param request: IC50 | system 786-0 complex spheroids with HUVEC/MSC, growth % test/control | item Nc1ncn(C2CC(O)C(CO)O2)c(=O)n1 (centres undefined) + Cc1cncc(-c2nc(NCCc3c[nH]c4ccccc34)c3ncn(C(C)C)c3n2)c1
Return: < 3.16 nM

Enquiry: Param request: IC50 | system 786-0 complex spheroids with HUVEC/MSC, growth % test/control | item CC(C)c1c(-c2ccccc2)nc2c(C#N)c[nH]n2c1=O + Cc1ccccc1N=Nc1ccc(NC(=O)c2ccnn2C)c(C)c1
Return: > 10000 nM

Enquiry: Param request: IC50 | system 786-0 complex spheroids with HUVEC/MSC, growth % test/control | item NS(=O)(=O)OCC1CC(n2ccc3c(NC4CCc5ccccc54)ncnc32)CC1O (centres undefined) + Cc1cncc(-c2nc(NCCc3c[nH]c4ccccc34)c3ncn(C(C)C)c3n2)c1
Return: < 31.6 nM

Enquiry: Param request: IC50 | system 786-0 complex spheroids with HUVEC/MSC, growth % test/control | item CC(C)CC(NC(=O)C(Cc1ccccc1)NC(=O)c1cnccn1)B(O)O (centres undefined) + Cc1cncc(-c2nc(NCCc3c[nH]c4ccccc34)c3ncn(C(C)C)c3n2)c1
Return: < 0.949 nM

Enquiry: Param request: IC50 | system 786-0 complex spheroids with HUVEC/MSC, growth % test/control | item Nc1ncn(C2CC(O)C(CO)S2)c(=O)n1 (centres undefined) + CC(CO)NC(=O)c1cc(-c2ccc(Cl)cc2)nn(-c2cnn(C)c2)c1=O
Return: > 300 nM

Enquiry: Param request: IC50 | system 786-0 complex spheroids with HUVEC/MSC, growth % test/control | item O=C(c1cc(Cc2n[nH]c(=O)c3ccccc23)ccc1F)N1CCN(C(=O)C2CC2)CC1 + Cc1ccccc1N=Nc1ccc(NC(=O)c2ccnn2C)c(C)c1
Return: > 10000 nM

Enquiry: Param request: IC50 | system 786-0 complex spheroids with HUVEC/MSC, growth % test/control | item Nc1ncn(C2CC(O)C(CO)S2)c(=O)n1 (centres undefined) + Cc1cncc(-c2nc(NCCc3c[nH]c4ccccc34)c3ncn(C(C)C)c3n2)c1
Return: < 0.949 nM
